# tested.system: furin, P09958;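 also: purified furin at 1:10 enzyme:substrate in 50 mM HEPES pH 7.5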
# Sequence (P09958 whole entry): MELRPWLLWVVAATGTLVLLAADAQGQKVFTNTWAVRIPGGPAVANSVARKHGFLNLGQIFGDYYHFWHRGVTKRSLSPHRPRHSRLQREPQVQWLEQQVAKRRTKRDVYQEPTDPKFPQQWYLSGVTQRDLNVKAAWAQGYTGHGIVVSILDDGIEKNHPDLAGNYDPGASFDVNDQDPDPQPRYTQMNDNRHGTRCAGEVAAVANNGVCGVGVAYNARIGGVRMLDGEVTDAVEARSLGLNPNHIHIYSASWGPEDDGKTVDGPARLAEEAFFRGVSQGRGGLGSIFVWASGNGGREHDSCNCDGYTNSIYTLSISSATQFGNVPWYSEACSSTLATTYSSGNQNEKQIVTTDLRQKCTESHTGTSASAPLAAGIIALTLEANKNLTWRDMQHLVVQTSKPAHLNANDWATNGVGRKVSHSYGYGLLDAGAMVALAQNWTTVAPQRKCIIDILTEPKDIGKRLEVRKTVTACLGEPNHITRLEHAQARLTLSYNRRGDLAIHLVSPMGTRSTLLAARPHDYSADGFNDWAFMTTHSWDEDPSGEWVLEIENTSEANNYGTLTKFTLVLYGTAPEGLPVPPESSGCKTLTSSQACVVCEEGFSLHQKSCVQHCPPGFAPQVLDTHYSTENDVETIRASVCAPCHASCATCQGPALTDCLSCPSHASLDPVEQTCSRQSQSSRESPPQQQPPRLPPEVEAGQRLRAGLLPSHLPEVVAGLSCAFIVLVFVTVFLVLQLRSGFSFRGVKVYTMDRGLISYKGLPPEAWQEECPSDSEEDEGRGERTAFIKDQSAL
# protocol.summary: furin cleavage Z-score vs untreated control; higher = more cleavage, active = 3.5 or more, inactive = 1 or less, 8 variable residues between constant flanks
# condition.parameters: 30 min
The list shows a part of the results. The hit rate among all sequences tested is not known here.
Assign furin cleavage Z-score to each entry below.
Number, no unit, nothing else.

Exercise: Give the reported furin cleavage Z-score for this sequence. CAMEEMSQHLAGNASASA [HC8]
Solution: 0.916

Exercise: Give the reported furin cleavage Z-score for this sequence. CAAPGRDGRDAGNASASA [FS-397]
Solution: -0.555

Exercise: Give the reported furin cleavage Z-score for this sequence. CAQPHRAQRSAGNASASA [FS-1153]
Solution: 6.74

Exercise: Give the reported furin cleavage Z-score for this sequence. CATGCVVIVGAGNASASA [HC999]
Solution: 1.66

Exercise: Give the reported furin cleavage Z-score for this sequence. CAVVCCSMAYAGNASASA [HC2063]
Solution: 0.58

Exercise: Give the reported furin cleavage Z-score for this sequence. CATARRHGRDAGNASASA [FS-878]
Solution: 6.27

Exercise: Give the reported furin cleavage Z-score for this sequence. CADYMEECSQAGNASASA [HC1809]
Solution: -0.614

Exercise: Give the reported furin cleavage Z-score for this sequence. CATTPCPGSWAGNASASA [HC80]
Solution: -1.39

Exercise: Give the reported furin cleavage Z-score for this sequence. CALREEVSFRAGNASASA [HC1231]
Solution: -0.791

Exercise: Give the reported furin cleavage Z-score for this sequence. CAVRNRRKRKAGNASASA [FS-1434]
Solution: 8.05

Exercise: Give the reported furin cleavage Z-score for this sequence. CAVVCCSMHYAGNASASA [HC2075]
Solution: 1.45

Exercise: Give the reported furin cleavage Z-score for this sequence. CAGRSEFKRCAGNASASA [FS-1331]
Solution: -0.471

Exercise: Give the reported furin cleavage Z-score for this sequence. CAEDTTPCSGAGNASASA [HC1971]
Solution: -0.5

Exercise: Give the reported furin cleavage Z-score for this sequence. CADVVTSTWVAGNASASA [HC2151]
Solution: 0.991

Exercise: Give the reported furin cleavage Z-score for this sequence. CANYTIFKIRAGNASASA [HC472]
Solution: -0.43
